molecular target: MCT8 (Rattus norvegicus, UniProt Q8K1P8, G227D/I169T/S199P/T171I); assay: Inhibition of uptake of labeled T4 and T3 in MCT8 cRNA-injected oocytes by putative competitors; format: cell-based; parameters: the stop codon of MCT8 was removed by performing PCR using the same sense primer as above; expressed in transfected cells; host or cells: Xenopus laevis oocytes injected with cRNA transcribed from pGEM-HeJuel; settings: unlabeled competitor; taurocholate and probenecid data not shown
Sequence (Q8K1P8 whole entry I169T/T171I/S199P/G227D): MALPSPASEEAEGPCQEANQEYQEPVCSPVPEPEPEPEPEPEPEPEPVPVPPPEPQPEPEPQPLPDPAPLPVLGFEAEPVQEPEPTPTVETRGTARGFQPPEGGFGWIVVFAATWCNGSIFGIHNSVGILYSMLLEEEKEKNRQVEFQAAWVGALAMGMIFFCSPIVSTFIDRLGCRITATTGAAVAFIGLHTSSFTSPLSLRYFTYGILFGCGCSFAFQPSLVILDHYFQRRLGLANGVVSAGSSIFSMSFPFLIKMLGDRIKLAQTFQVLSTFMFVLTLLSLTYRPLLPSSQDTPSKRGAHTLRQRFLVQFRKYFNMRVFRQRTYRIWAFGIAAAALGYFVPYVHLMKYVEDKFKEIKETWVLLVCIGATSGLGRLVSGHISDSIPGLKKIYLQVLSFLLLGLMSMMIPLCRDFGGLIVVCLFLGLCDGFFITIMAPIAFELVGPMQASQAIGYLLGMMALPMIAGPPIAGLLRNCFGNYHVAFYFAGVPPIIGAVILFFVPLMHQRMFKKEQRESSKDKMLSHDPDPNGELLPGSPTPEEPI
Reported metric: Inhibition of labeled T4 and T3 uptake by MCT8 (in words)

{"Smiles": "N[C@H](Cc1cc(I)c(Oc2ccc(O)c(I)c2)c(I)c1)C(=O)O", "Result": "potently inhibited"}
{"Smiles": "N[C@@H](Cc1ccc(O)cc1)C(=O)O", "Result": "hardly affected"}
{"Smiles": "N[C@H](Cc1cc(I)c(Oc2cc(I)c(O)c(I)c2)c(I)c1)C(=O)O", "Result": "potently inhibited"}
{"Smiles": "N[C@@H](Cc1cc(I)c(Oc2cc(I)c(O)c(I)c2)c(I)c1)C(=O)O", "Result": "potently inhibited"}
{"Smiles": "N[C@@H](Cc1c[nH]c2ccccc12)C(=O)O", "Result": "hardly affected"}

Now look at this entry.
Data request: Enter reported Inhibition of labeled T4 and T3 uptake by MCT8 (in words) observed with MCT8 (Rattus norvegicus, UniProt Q8K1P8, G227D/I169T/S199P/T171I) for `O=C(CBr)N[C@@H](Cc1cc(I)c(Oc2ccc(O)c(I)c2)c(I)c1)C(=O)O`
Data returned: potently inhibited

====

target: MCT8 (Rattus norvegicus, UniProt Q8K1P8, G227D/I169T/S199P/T171I); assay: Transport (uptake) of radioactive ligands by MCT8 expressed in X. laevis oocytes; type: cell-based; parameters: the stop codon of MCT8 was removed by performing PCR using the same sense primer as above; expressed in transfected cells; host or cells: Xenopus laevis oocytes injected with cRNA transcribed from pGEM-HeJuel; conditions: 10 nM iodothyronines or amino acids; MCT8 cRNA-injected vs uninjected oocytes
Reported metric: Substrate specificity: transport by MCT8 (in words)

{"Smiles": "N[C@@H](Cc1c[nH]c2ccccc12)C(=O)O", "Result": "not transported"}
{"Smiles": "NS(=O)(=O)O", "Result": "not transported"}
{"Smiles": "N[C@@H](Cc1ccc(Oc2ccc(O)c(I)c2)c(I)c1)C(=O)O", "Result": "rapid uptake"}
{"Smiles": "N[C@@H](Cc1cc(I)c(Oc2cc(I)c(O)c(I)c2)c(I)c1)C(=O)O", "Result": "rapid uptake"}
